target: UniProtKB P32238; assay: IP-One accumulation TR-FRET assay, agonist format, HEK-293 CCK1R cells; assay type: cell-based; design: expressed in transfected cells; host or cells: HEK-293; conditions: HEK293, relative to CCK control, average ± SD, read-out: CCK1R Ago (IP-One) Emax
Readout Name: Emax (%)

The examples below pair each entry with its known result.
[
  {
    "Smiles Code": "c1ccc(CCNc2ncnc3c2sc2nc(N4CCOCC4)c4c(c23)CCCC4)cc1",
    "Units Symbol": "%",
    "Numeric Value": 0
  },
  {
    "Smiles Code": "CCCc1nc2sc3c(NCCCO)ncnc3c2c2c1CCC2",
    "Units Symbol": "%",
    "Numeric Value": 0
  }
]

I = O=C(O)CSc1ncnc2c1sc1nc(N3CCOCC3)c3c(c12)CCCC3
II = NCCNc1ncnc2c1sc1nc(N3CCCCC3)c3c(c12)CCCC3
query: Consider entries I and II . Which has the numerically lower Emax? Lab log: write the label of the selected item as the result.
result: I

---

molecular target: CCK1R (Homo sapiens); test: IP-One accumulation TR-FRET assay, PAM format, HEK-293 CCK1R cells; format: cell-based; design: expressed in transfected cells; host or cells: HEK-293; conditions: HEK293; HEK-293 CCK1R cells, PAM format, relative to CCK control; average ± SD
Sequence (P32238 whole entry): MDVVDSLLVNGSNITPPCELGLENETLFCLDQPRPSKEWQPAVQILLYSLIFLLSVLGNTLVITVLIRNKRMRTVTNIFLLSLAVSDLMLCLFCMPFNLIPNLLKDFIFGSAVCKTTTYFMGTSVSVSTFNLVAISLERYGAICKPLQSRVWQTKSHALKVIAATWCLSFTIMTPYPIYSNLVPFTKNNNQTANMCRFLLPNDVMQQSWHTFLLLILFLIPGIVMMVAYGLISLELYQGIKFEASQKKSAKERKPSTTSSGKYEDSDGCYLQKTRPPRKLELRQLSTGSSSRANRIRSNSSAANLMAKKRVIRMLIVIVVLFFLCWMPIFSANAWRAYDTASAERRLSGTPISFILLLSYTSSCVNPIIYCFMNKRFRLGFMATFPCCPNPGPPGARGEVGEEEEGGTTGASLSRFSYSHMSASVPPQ
Readout Name: Emax (%)

The examples below pair each entry with its known result.
[
  {
    "Smiles Code": "CN1CCN(c2ncnc3c2sc2nc(N4CCOCC4)c4c(c23)CCCC4)CC1",
    "Emax, %": 51
  },
  {
    "Smiles Code": "COCCNc1ncnc2c1sc1nc(N3CCOCC3)c3c(c12)CCCC3",
    "Emax, %": 0
  },
  {
    "Smiles Code": "CCN(CC)CCNc1ncnc2c1oc1nc(CC(C)C)c3c(c12)CCC3",
    "Emax, %": 35
  },
  {
    "Smiles Code": "OCCN1CCN(c2ncnc3c2sc2nc(-c4ccccc4)c4c(c23)CCC4)CC1",
    "Emax, %": 28
  },
  {
    "Smiles Code": "CCN(CC)CCNc1ncnc2c1sc1nc(N3CCCCC3)c3c(c12)CCCC3",
    "Emax, %": 57
  },
  {
    "Smiles Code": "OCCNc1ncnc2c1sc1nc(N3CCOCC3)c3c(c12)CCCC3",
    "Emax, %": 0
  },
  {
    "Smiles Code": "CCCc1nc2sc3c(NCCCN(C)C)ncnc3c2c2c1CCCC2",
    "Emax, %": 43
  },
  {
    "Smiles Code": "CCCc1nc2oc3c(NCCCN(C)C)ncnc3c2c2c1CCCC2",
    "Emax, %": 35
  },
  {
    "Smiles Code": "NCCNc1ncnc2c1sc1nc(N3CCCCC3)c3c(c12)CCCC3",
    "Emax, %": 39
  },
  {
    "Smiles Code": "C/C(Br)=C\\CSc1ncnc2c1sc1nc(N3CCOCC3)c3c(c12)CCCC3",
    "Emax, %": 0
  }
]

P = CCCCc1nc2sc3c(NCCN4CCOCC4)ncnc3c2c2c1CCCC2
Q = c1ccc(CCNc2ncnc3c2sc2nc(N4CCOCC4)c4c(c23)CCCC4)cc1
R = CCCc1nc2sc3c(SC)ncnc3c2c2c1CCCC2
S = c1nc(N2CCNCC2)c2sc3nc(N4CCOCC4)c4c(c3c2n1)CCCC4
query: Rank items: key Emax, increasing. Submit the labels in the order that the ranking request calls for.
result: Q, R, P, S
(Q: 0%, R: 20%, P: 41%, S: 60%)

P = CN1CCN(c2ncnc3c2sc2nc(N4CCCCC4)c4c(c23)CCCC4)CC1
Q = CCCc1nc2sc3c(NCCN4CCOCC4)ncnc3c2c2c1CCCC2
query: Kindly identify which of P and Q has the larger recorded Emax value. Lab log: write the label of the selected item as the result.
result: Q
(Q: 53%, P: 35%)

I = CN(C)CCNc1nnnc2c1sc1nc(N3CCCCC3)c3c(c12)CCCC3
II = CCCc1nc2oc3c(NCCCN(CC)CC)ncnc3c2c2c1CCCC2
query: Kindly identify which of I and II has the larger recorded Emax value. Lab log: write the label of the selected item as the result.
result: I
